Sourced from paper PMC2933425

system: HeLa cells; test: Cellular uptake into HeLa cells; assay type: cell-based, human; settings: 24 h, highest concentration (20.5 μM)

| sample_smiles | uptake level (in words) |
| --- | --- |
| CC1(C)Cc2cc3[nH]c(cc4nc(cc5[nH]c(cc1n2)cc5C(=O)/C=C/c1cc(O)cc(O)c1)CC4(C)C)cc3C(=O)/C=C/c1cc(O)cc(O)c1 | low uptake |
| CC1(C)Cc2cc3[nH]c(cc4nc(cc5[nH]c(cc1n2)cc5C(=O)N1CC[N+](C)(C)CC1)CC4(C)C)cc3C(=O)N1CC[N+](C)(C)CC1.[Cl-].[Cl-] | low uptake |

---

assay: Photophysical measurements; assay type: physicochemical; details: Ar-purged 2-methyltetrahydrofuran
measured_property: τT (lifetime of the lowest triplet excited state) (μs)
Use μs as the unit, but write only the number.

input: Item under review: COCCN(CCOC)C(=O)c1cc2cc3nc(cc4[nH]c(cc5nc(cc1[nH]2)CC5(C)C)cc4C(=O)N(CCOC)CCOC)CC3(C)C [Compound 12] . Reported τT (lifetime of the lowest triplet excited state)?
output: 105

input: And then CC1(C)Cc2cc3[nH]c(cc4nc(cc5[nH]c(cc1n2)cc5C(=O)/C=C/c1cc(O)cc(O)c1)CC4(C)C)cc3C(=O)/C=C/c1cc(O)cc(O)c1 [Compound 11] , what is it?
output: 78

input: Lookup CC1(C)Cc2cc3[nH]c(cc4nc(cc5[nH]c(cc1n2)cc5-c1cc(O)cc(O)c1)CC4(C)C)cc3-c1cc(O)cc(O)c1 [Compound 4]
output: 190

input: // repeat for CC1(C)Cc2cc3[nH]c(cc4nc(cc5[nH]c(cc1n2)cc5C(=O)O)CC4(C)C)cc3C(=O)O [Compound 7] and report
output: 70

input: Moving on to the next molecule: CC1(C)Cc2cc3[nH]c(cc4nc(cc5[nH]c(cc1n2)cc5-c1cc(OCCO)cc(OCCO)c1)CC4(C)C)cc3-c1cc(OCCO)cc(OCCO)c1 [Compound 3]
output: 159

input: Also CC1(C)Cc2cc3[nH]c(cc4nc(cc5[nH]c(cc1n2)cc5CN(CCO)CCO)CC4(C)C)cc3CN(CCO)CCO [Compound 6] , if possible.
output: 190

---

What Qy(0,0) fluorescence λ was measured for each of the following?
assay: Photophysical measurements; type: physicochemical; conditions: aerated methanol
Note: unit nm is implicit; provide only the numeric part.

input: Consider the compound shown here: CC1(C)Cc2cc3[nH]c(cc4nc(cc5[nH]c(cc1n2)cc5C#CC[N+](C)(C)C)CC4(C)C)cc3C#CC[N+](C)(C)C.[Cl-].[Cl-] What is its recorded Qy(0,0) fluorescence λ?
output: 754

input: // repeat for CC1(C)Cc2cc3[nH]c(cc4nc(cc5[nH]c(cc1n2)cc5C(=O)NCCN)CC4(C)C)cc3C(=O)NCCN and report
output: 750

input: How about this compound: CC1(C)Cc2cc3[nH]c(cc4nc(cc5[nH]c(cc1n2)cc5C(=O)O)CC4(C)C)cc3C(=O)O
output: 742

input: Proceed to COCCN(CCOC)C(=O)c1cc2cc3nc(cc4[nH]c(cc5nc(cc1[nH]2)CC5(C)C)cc4C(=O)N(CCOC)CCOC)CC3(C)C
output: 733

---

experiment: Photophysical measurements; type: physicochemical; conditions: aerated methanol
For each of the compounds below, state its Qy(0,0) fluorescence λ.
The answer is to be given in nm; state only the numeric part.

input: Consider the compound CC1(C)Cc2cc3[nH]c(cc4nc(cc5[nH]c(cc1n2)cc5-c1cc(O)cc(O)c1)CC4(C)C)cc3-c1cc(O)cc(O)c1 [Compound 4] and give its measured Qy(0,0) fluorescence λ.
output: 737

input: Proceed to CC1(C)Cc2cc3[nH]c(cc4nc(cc5[nH]c(cc1n2)cc5C(=O)N(CCN)CCN)CC4(C)C)cc3C(=O)N(CCN)CCN [Compound 9]
output: 735

input: Also CC1(C)Cc2cc3[nH]c(cc4nc(cc5[nH]c(cc1n2)cc5CN(CCO)CCO)CC4(C)C)cc3CN(CCO)CCO [Compound 6] ?
output: 724

input: // repeat for CC1(C)Cc2cc3[nH]c(cc4nc(cc5[nH]c(cc1n2)cc5C(=O)N1CC[N+](C)(C)CC1)CC4(C)C)cc3C(=O)N1CC[N+](C)(C)CC1.[Cl-].[Cl-] [Compound 10] and report
output: 740

input: Here is the next compound: CC1(C)Cc2cc3[nH]c(cc4nc(cc5[nH]c(cc1n2)cc5C(=O)/C=C/c1cc(O)cc(O)c1)CC4(C)C)cc3C(=O)/C=C/c1cc(O)cc(O)c1 [Compound 11]
output: 800

input: Now consider CC1(C)Cc2cc3[nH]c(cc4nc(cc5[nH]c(cc1n2)cc5-c1cc(OCCO)cc(OCCO)c1)CC4(C)C)cc3-c1cc(OCCO)cc(OCCO)c1 [Compound 3] .
output: 738

---

Please provide measured Qy(0,0) absorption fwhm for the entries that follow.
test: Photophysical measurements; type: physicochemical; conditions: aerated methanol
Number only, in nm; omit the unit.

input: What Qy(0,0) absorption fwhm value was documented for this compound, COCCN(CCOC)C(=O)c1cc2cc3nc(cc4[nH]c(cc5nc(cc1[nH]2)CC5(C)C)cc4C(=O)N(CCOC)CCOC)CC3(C)C [Compound 12] ?
output: 20

input: Okay, and CC1(C)Cc2cc3[nH]c(cc4nc(cc5[nH]c(cc1n2)cc5CN(CCO)CCO)CC4(C)C)cc3CN(CCO)CCO [Compound 6] ?
output: 18

input: Subsequent entry: CC1(C)Cc2cc3[nH]c(cc4nc(cc5[nH]c(cc1n2)cc5-c1cc(O)cc(O)c1)CC4(C)C)cc3-c1cc(O)cc(O)c1 [Compound 4]
output: 21

input: Now try CC1(C)Cc2cc3[nH]c(cc4nc(cc5[nH]c(cc1n2)cc5C(=O)N1CC[N+](C)(C)CC1)CC4(C)C)cc3C(=O)N1CC[N+](C)(C)CC1.[Cl-].[Cl-] [Compound 10] .
output: 21

input: Again, but for CC1(C)Cc2cc3[nH]c(cc4nc(cc5[nH]c(cc1n2)cc5C(=O)/C=C/c1cc(O)cc(O)c1)CC4(C)C)cc3C(=O)/C=C/c1cc(O)cc(O)c1 [Compound 11]
output: 35

input: // same read-out, input: CC1(C)Cc2cc3[nH]c(cc4nc(cc5[nH]c(cc1n2)cc5-c1cc(OCCO)cc(OCCO)c1)CC4(C)C)cc3-c1cc(OCCO)cc(OCCO)c1 [Compound 3]
output: 19

input: Lookup CC1(C)Cc2cc3[nH]c(cc4nc(cc5[nH]c(cc1n2)cc5C(=O)NCCN)CC4(C)C)cc3C(=O)NCCN [Compound 8]
output: 23

input: Try the compound CC1(C)Cc2cc3[nH]c(cc4nc(cc5[nH]c(cc1n2)cc5C(=O)N(CCN)CCN)CC4(C)C)cc3C(=O)N(CCN)CCN [Compound 9]
output: 19

input: Also, CC1(C)Cc2cc3[nH]c(cc4nc(cc5[nH]c(cc1n2)cc5C#CC[N+](C)(C)C)CC4(C)C)cc3C#CC[N+](C)(C)C.[Cl-].[Cl-] [Compound 5] please.
output: 16

input: Another compound: CC1(C)Cc2cc3[nH]c(cc4nc(cc5[nH]c(cc1n2)cc5C(=O)O)CC4(C)C)cc3C(=O)O [Compound 7]
output: 26

input: Would you mind doing COCCOCCOCCOCCNCc1cc(CNCCOCCOCCOCCOC)cc(-c2c3nc(cc4[nH]c(cc4-c4ccc(C)cc4)c(OC)c4nc(cc5[nH]c2cc5-c2ccc(C)cc2)C(C)(C)C4)C(C)(C)C3)c1 [Compound 1] as well?
output: 21

---

experiment: Photophysical measurements; assay type: physicochemical; conditions: Ar-purged methanol
Hi! Just check whether Θ f (fluorescence quantum yield) is below 0.1. Below gives yes (1), equal or above gives no (0).

input: In the record for CC1(C)Cc2cc3[nH]c(cc4nc(cc5[nH]c(cc1n2)cc5C(=O)O)CC4(C)C)cc3C(=O)O , is Θ f (fluorescence quantum yield) less than 0.1?
output: yes (1)

input: // query: CC1(C)Cc2cc3[nH]c(cc4nc(cc5[nH]c(cc1n2)cc5CN(CCO)CCO)CC4(C)C)cc3CN(CCO)CCO
output: yes (1)

input: Same question, CC1(C)Cc2cc3[nH]c(cc4nc(cc5[nH]c(cc1n2)cc5C(=O)NCCN)CC4(C)C)cc3C(=O)NCCN this time
output: no (0)

input: And then CC1(C)Cc2cc3[nH]c(cc4nc(cc5[nH]c(cc1n2)cc5C#CC[N+](C)(C)C)CC4(C)C)cc3C#CC[N+](C)(C)C.[Cl-].[Cl-] , what is it?
output: no (0)

input: Next entry: CC1(C)Cc2cc3[nH]c(cc4nc(cc5[nH]c(cc1n2)cc5-c1cc(O)cc(O)c1)CC4(C)C)cc3-c1cc(O)cc(O)c1
output: no (0)

input: // repeat for CC1(C)Cc2cc3[nH]c(cc4nc(cc5[nH]c(cc1n2)cc5C(=O)N1CC[N+](C)(C)CC1)CC4(C)C)cc3C(=O)N1CC[N+](C)(C)CC1.[Cl-].[Cl-] and report
output: no (0)
